# test_protocol: Plasma and tumor PK in MC38 colon cancer xenograft mice
# Assay type: in vivo, mouse
# assay_context: C57BL/6, mouse, plasma, IMMH-010 maleate 5 mg/kg PO, read-out: elimination half-life (t1/2β) in plasma (converted)
test_readout: half-life (h)
Report only the number, with the unit h understood.

Task: Which half-life value is on record for O=C(O)[C@H](CO)NCc1cc(Cl)c(OCc2cccc(-c3ccccc3)c2Br)cc1OCc1cccnc1 [YPD-29B] ?
Result: 1.76

###

# test_protocol: Plasma and tumor PK in B16F10 melanoma xenograft mice
# Format: in vivo, mouse
# assay_context: C57BL/6, mouse, tumor and plasma; B16F10 mice, IMMH-010 maleate 5 mg/kg PO; read-out: tissue/plasma ratio (AUCtumor/AUCplasma)
test_readout: Kp
Keep it simple and answer with nothing but the number.

Task: Bench note: what Kp did O=C(O)[C@H](CO)NCc1cc(Cl)c(OCc2cccc(-c3ccccc3)c2Br)cc1OCc1cccnc1 [YPD-29B] show?
Result: 2.1
